whole-cell filipin (z-score) overview
Tested on: HeLa MZ
test.summary: whole-cell filipin (free cholesterol) integrated intensity, Z-score; higher = more cholesterol staining
study.conditions: compound concentration in added solution (µM; 5 µl added to 20 µl cells): 10; 18 h
Where a name gives a salt, the structure may show the parent alone.
Answer with a bare number; do not write a unit.

Qu. Request the reported whole-cell filipin (z-score) associated with CCC1(c2cccc(O)c2)CCCCN(C)C1 (stereo not given) [Meptazinol hydrochloride]
Ans. -0.306

Qu. C[C@]12COC(=O)C[C@@H]1CC[C@@H]1[C@@H]2CC[C@@]2(C)[C@H]1CC[C@]2(C)O [Oxandrolone] , same question.
Ans. -0.159

Qu. Next entry: CCNCC(O)c1cccc(O)c1 (stereo not given) [Etilefrine hydrochloride]
Ans. -0.0907

Qu. # iterate: COc1ccc(C(=O)N2CCCC2=O)cc1 [Aniracetam]
Ans. -0.402

Qu. Then CC(Cc1ccccc1)NCCC(c1ccccc1)c1ccccc1 (stereo not given) [Prenylamine lactate] ?
Ans. 1.27

----------
Tested on: HeLa MZ
test.summary: whole-cell filipin (free cholesterol) integrated intensity, Z-score; higher = more cholesterol staining
study.conditions: compound concentration in added solution (µM; 5 µl added to 20 µl cells): 10; 18 h
Counter-ions that a name gives are not always drawn.
measurement.label: whole-cell filipin (z-score)
Give the figure by itself; no unit, no explanation.

// worked examples, whole-cell filipin (z-score) included
C[C@]12CCC(=O)C=C1C=C[C@@H]1[C@@H]2CC[C@@]2(C)[C@H]1CC[C@@]2(O)CCC(=O)O [Canrenoic acid potassium salt]	-1.15
CC1OC(OC2/C=C/C=C/C=C/C=C/CC/C=C/C=C/[C@H](C)[C@@H](O)[C@@H](C)[C@H](C)OC(=O)CC(O)CC(O)CC(O)CCC(O)C(O)C[C@]3(O)CC(O)C(C(=O)O)C(C2)O3)C(O)C(N)C1O (stereo partly drawn)	0.0497

Qu. Could you tell me which whole-cell filipin (z-score) is on file for CC(C)c1c(CN(C)C(C)Cc2ccccc2)n(C)n(-c2ccccc2)c1=O (stereo not drawn) ?
Ans. -0.336

----------
Test system: A431
test.summary: filipin (cholesterol) integrated intensity within LBPA endosomes, Z-score; higher = more cholesterol in LBPA endosomes
study.conditions: compound concentration in added solution (µM; 5 µl added to 20 µl cells): 10; 18 h
Counter-ions that a name gives are not always drawn.
measurement.label: filipin (z-score)
Output spec: single numeric token, no unit.

Solved entries:
C(#CCN1CCCC1)CN1CCCC1 [Tremorine dihydrochloride]	-0.368
C=CCN1CC[C@]23c4c5ccc(O)c4O[C@H]2C(=O)CC[C@@]3(O)[C@H]1C5 [Naloxone hydrochloride]	-0.454
CC(C)c1c(CN(C)C(C)Cc2ccccc2)n(C)n(-c2ccccc2)c1=O (stereo not drawn) [Famprofazone]	-0.4
CC(C)c1cccc(C(C)C)c1O [Propofol]	-0.506

Qu. Please look up its filipin (z-score): O=C([O-])c1ccccc1-c1c2cc(Br)c(=O)cc-2oc2[c]([Hg+])c([O-])c(Br)cc12.[Na+].[Na+].[OH-] [Merbromin]
Ans. -0.525

Qu. Same question for CCCC(C)C1(CC)C(=O)NC(=O)NC1=O (stereo not drawn) [Pentobarbital] please.
Ans. -0.553

Qu. Try NC(=O)C[S+]([O-])C(c1ccccc1)c1ccccc1 (stereo not drawn) [Modafinil] next.
Ans. -0.532

Qu. Now try CCCCCC[C@H]1C(=O)O[C@H](C)[C@H](NC(=O)c2cccc(NC=O)c2O)C(=O)O[C@@H](C)[C@@H]1OC(=O)CC(C)C [Antimycin A] .
Ans. -0.854

----------
Measured whole-cell filipin (z-score), listed per entry.
Test system: HeLa MZ
test.summary: whole-cell filipin (free cholesterol) integrated intensity, Z-score; higher = more cholesterol staining
study.conditions: compound concentration in added solution (µM; 5 µl added to 20 µl cells): 10; 18 h
Structures can show the parent of a compound that is named as a salt.
Please reply with the number alone, leaving off any unit.

Solved entries:
C[C@]12CC[C@@H](O)C[C@@H]1CC[C@@H]1[C@@H]2CC[C@]2(C)C(=O)CC[C@@H]12	-0.395
Cc1cccc(C)c1NC1=NCCCS1	-0.725
C1CCc2nnnn2CC1	-0.876
C[C@]12Cc3c[nH]nc3C[C@@H]1CC[C@@H]1[C@@H]2CC[C@@]2(C)[C@H]1CC[C@]2(C)O	-0.167
Clc1ccc(C(OCCN2CCCCC2)c2ccccc2)cc1 (centres undefined) [Cloperastine hydrochloride]	-0.495
C[N+]1(C)CCCC(OC(=O)C(O)(c2ccccc2)c2ccccc2)C1 (centres undefined) [Mepenzolate bromide]	-0.0861

Qu. # whole-cell filipin (z-score) lookup, item CCNC1(c2cccs2)CCCCC1=O (centres undefined) [Tiletamine hydrochloride]
Ans. -0.435

Qu. Follow-up item: CC[C@@H](C(N)=O)N1CCCC1=O
Ans. 0.0516

Qu. Field entry: NCCc1c[nH]c2ccc(O)cc12 [Serotonin hydrochloride]
Ans. -1.21

----------
The following compounds are shown together with reported whole-cell filipin (z-score) values.
Test system: HeLa MZ
test.summary: whole-cell filipin (free cholesterol) integrated intensity, Z-score; higher = more cholesterol staining
study.conditions: compound concentration in added solution (µM; 5 µl added to 20 µl cells): 10; 18 h
Lab note: write the figure by itself, no unit.

Qu. Returns the measured whole-cell filipin (z-score) for the input compound. Input: CCC1=C[C@H]2CN3CCc4c([nH]c5ccccc45)[C@](C(=O)OC)(C2)[C@H]13
Ans. 0.581

Qu. Item: CN[C@@H]1[C@@H](O)[C@@H](O[C@@H]2[C@@H](O)[C@H](O[C@H]3O[C@H](CN)CC[C@H]3N)[C@@H](N)C[C@H]2N)OC[C@]1(C)O.CN[C@@H]1[C@@H](O)[C@@H](O[C@@H]2[C@@H](O)[C@H](O[C@H]3O[C@H]([C@@H](C)N)CC[C@H]3N)[C@@H](N)C[C@H]2N)OC[C@]1(C)O.CN[C@@H]1[C@@H](O)[C@@H](O[C@@H]2[C@@H](O)[C@H](O[C@H]3O[C@H]([C@@H](C)NC)CC[C@H]3N)[C@@H](N)C[C@H]2N)OC[C@]1(C)O [Gentamicine sulfate]
Ans. -0.98

Qu. Same lookup for CN1CCN(C(=O)OC2c3nccnc3C(=O)N2c2ccc(Cl)cn2)CC1 (stereo not given) , please.
Ans. -0.164

Qu. Moving on to the next compound: COc1ccc(CCN2CCC(Nc3nc4ccccc4n3Cc3ccc(F)cc3)CC2)cc1
Ans. -1.11

Qu. Now the same for C[C@]12CCC(=O)C(O)=C1CC[C@@H]1[C@@H]2CC[C@]2(C)C(=O)CC[C@@H]12
Ans. 2.23

----------
Test system: A431
test.summary: filipin (cholesterol) integrated intensity within LBPA endosomes, Z-score; higher = more cholesterol in LBPA endosomes
study.conditions: compound concentration in added solution (µM; 5 µl added to 20 µl cells): 10; 18 h
Counter-ions that a name gives are not always drawn.
Kindly return label 1 if reported filipin (z-score) is no lower than -0.4; return label 0 if it is lower.

The following compounds have reported results that may help.
Oc1cc(Cl)ccc1Oc1ccc(Cl)cc1Cl	label 1
CN1C[C@H](CNC(=O)OCc2ccccc2)C[C@@H]2c3cccc4c3c(cn4C)C[C@H]21	label 1
CN1[C@@H]2CC[C@H]1C[C@@H](OC(=O)C(CO)c1ccccc1)C2 (stereo partly drawn) [Atropine sulfate monohydrate]	label 0

Qu. Threshold query (filipin (z-score) >= -0.4) on C[N+]1([O-])[C@@H]2C[C@@H](OC(=O)[C@H](CO)c3ccccc3)C[C@H]1[C@@H]1O[C@@H]12 (stereo partly drawn) [Scopolamin-N-oxide hydrobromide]
Ans. label 0

Qu. Next record, please: CC(C)CC(N(C)C)C1(c2ccc(Cl)cc2)CCC1 (stereo not drawn) [Sibutramine HCl]
Ans. label 0

Qu. Param item: CC(C)(N)Cc1ccccc1 [Phentermine hydrochloride]
Ans. label 1

Qu. Note, next up: CN1[C@@H]2CC[C@H]1C[C@@H](OC1c3ccccc3CCc3ccccc31)C2 [Deptropine citrate]
Ans. label 1

----------
Test system: A431
test.summary: whole-cell filipin (free cholesterol) integrated intensity, Z-score; higher = more cholesterol staining
study.conditions: compound concentration in added solution (µM; 5 µl added to 20 µl cells): 10; 18 h
Structures can show the parent of a compound that is named as a salt.
measurement.label: whole-cell filipin (z-score)

Some compounds with recorded whole-cell filipin (z-score):
COc1ccc(Cc2nccc3cc(OC)c(OC)cc23)cc1OC [Papaverine hydrochloride]	-0.685
NCC(CC(=O)O)c1ccc(Cl)cc1 (racemic) [Baclofen (R,S)]	-1.03
CN1[C@@H]2CC[C@H]1C[C@@H](OC1c3ccccc3CCc3ccccc31)C2 [Deptropine citrate]	1.8

Qu. Query the reported whole-cell filipin (z-score) for A431; item: CCN(C)C(=O)Oc1cccc([C@H](C)N(C)C)c1
Ans. 0.162

Qu. Now the same for CC(N)C(O)c1ccccc1 (centres undefined) [Phenylpropanolamine hydrochloride]
Ans. -0.689

Qu. Record: CC(=O)OC1CN2CCC1CC2 (centres undefined) [Aceclidine Hydrochloride]
Ans. -0.642

Where do these numbers come from? They come from the supplement of paper PMC6607015.
